FYI, the data here is from ChEMBL document CHEMBL1201862.

What follows is a collection of GI50 values obtained with HCT-15.

COc1ccc(/C=C2\N=C(N3CCOCC3)NC2=O)cc1 | > 100 µM
O=c1c2ccccc2nc(-c2cccc([N+](=O)[O-])c2)n1O | 17.8 µM
COc1cc(C(c2ccc3c(c2)OCO3)N2C(=O)CCC2C(=O)O)cc(OC)c1OC (stereo unspecified) | > 100 µM

Q: Reported GI50 for HCT-15, given Oc1nc(S)nc2c1C(c1ccc(Cl)cc1)c1c(O)nc(S)nc1O2 ?
A: > 100 µM

Q: // fetch HCT-15 GI50 for O=C(Nc1ccc(Cl)cc1C(F)(F)F)C(=O)Nn1c(S)nc2ccccc2c1=O
A: > 100 µM

---

Reported GI50 values for the following molecules.
System: SW-620
Experimental protocol: NCI tumour cell line growth inhibition, 48 h
Active and inactive are the calls of the source. Cut-off read from the data, not from the text of the source: active = GI50 up to about 1.1 µM and inactive = higher.

O=C(O)C1CC2C=CCC(C2)C1 (stereo not given) | > 100 µM (inactive)
Cc1oc2c(cc(O)c3ccccc32)c2cccc1-2 | > 100 µM (inactive)
O=C(OCCC12CC3CC(CC(C3)C1)C2)c1ccc(NCc2cc(O)ccc2O)cc1 | 1.63 µM (inactive)
Cc1sc2nc(-c3ccc(Cl)c([N+](=O)[O-])c3)c(/C=N/NC(=N)N)n2c1C | 0.247 µM (active)

Q: Could you share which GI50 value was measured for O=C1CCCC1C(O)(C(F)(F)Cl)C(F)(F)Cl (stereo not given) ?
A: > 10 µM (inactive)

Q: I am curious: what GI50 value has been reported for CN(CCc1ccc(Cl)c(Cl)c1)CCN(C)CCN1CCCC1 ?
A: 12.1 µM (inactive)

Q: Look up GI50: CC(=O)Oc1ccc2c(c1)O/C(=C\c1ccc(N(C)C)cc1)C2=O
A: 52.2 µM (inactive)

Q: Could you tell me which GI50 is on file for CCOC(=O)n1cncc1CC(NC(=O)Cc1c(C(=O)C=C(C)C)[nH]c2ccccc12)C(=O)OC (stereo not given) ?
A: 25.7 µM (inactive)

Q: Quick check: GI50 of O=C(O)C(SC(=S)c1ccc(C(=S)SC(C(=O)O)c2ccccc2)cc1)c1ccccc1 (stereo not given) ?
A: > 100 µM (inactive)

Q: Quick one: GI50 of CC1=C(/C(C)=N/NC(=O)c2ccccc2O)C(C)C(/C(C)=N/NC(=O)c2ccccc2O)=C(C)N1 ?
A: 33.6 µM (inactive)

---

System: HCT-116
Experimental protocol: NCI tumour cell line growth inhibition, 48 h
Activity calls are given as the source filed them. No stated cut-off is given here; in the data, active = GI50 up to about 1.1 µM and inactive = higher.
Returns: one label drawn from T = active, F = inactive

CC(=O)Oc1ccc2c(c1)O/C(=C\c1ccc(N(C)C)cc1)C2=O | F
O=C1c2cn[nH]c2N=C(Nc2ccccc2)C1/N=C/c1ccc([N+](=O)[O-])cc1 (stereo not given) | F
O=[N+]([O-])c1ccc(Cl)cc1C1ON=C(c2ccccc2)N1C12CC3CC(CC(C3)C1)C2 (stereo not given) | F
CCn1c(SCC(=O)NNC(=S)Nc2ccc([N+](=O)[O-])cc2)nc2ccccc2c1=O | F
COC1C(=O)N(SC)C1c1ccccc1Cl (stereo not given) | F
CCOC(=O)c1c(C)nc2c3ccccc3c(C#N)c(C)n12 | F
CCn1c2ccc(O)c(C(=O)OC)c2c2cc3ccccc3c(O)c21 | F
C=CC(Br)(CBr)CCC(Br)C(C)C (stereo not given) | F
CCOP(=O)(OCC)C(C)(C)OC(=O)NC#N | F
Clc1ccc(/C=C/c2nc(-c3ccccc3)cn3c2nc2ccccc23)cc1Cl | F

Q: GET /call?item= CCC(CCCC[C@@H]1CC[C@H]2CC(=O)C[C@@H]12)OC (stereo not given in full) returns the recorded outcome of this test.
A: F

Q: Test call for this compound, please: O=C(OCCC12CC3CC(CC(C3)C1)C2)c1ccc(NCc2cc(O)ccc2O)cc1
A: F

Q: Assay outcome for Cc1nc(Nc2ccccc2)sc1C(=O)CC(=O)C(=O)Nc1c(C(C)C)cccc1C(C)C : what was it?
A: F

Q: Please indicate how the test categorized CC1C(c2ccccc2O)c2cc3c(cc2OC1N1CCOCC1)OCO3 (stereo not given) .
A: F
